pKd: −log10 of the molar value.
parameter: pKd

Lookup: Under RIPK4: pKd value of O=C(Nc1ccccc1F)NC1CCN(c2ccnc(Nc3ccc(F)cc3)n2)C1 (stereo not shown) ?
Found: < 5.00

###

system: ULK3; details: concentration: 1 μM, replicates: in singlicate; n = 1;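 further: KINOMEscan kinase panel screen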
# note: exactly 5% is not below, so it is False; use True for %Inh strictly under it

Lookup: Is 5% strictly greater than the compound's reported %Inh? compound: "Cc1ccc(NC(=O)c2cccc(C#N)c2)cc1-c1ccc(C(=O)Nc2ccncc2)cc1"
Found: False

Lookup: Is 5% strictly greater than the compound's reported %Inh? compound: "CN1CCC(n2cnc(-c3ccc(F)cc3)c2-c2ccnc(NC3CCNCC3)n2)CC1"
Found: False

Lookup: Is 5% strictly greater than the compound's reported %Inh? compound: "COc1ccc(NC(=O)Nc2ccc(C)c(-c3ccc(C(=O)Nc4ccncc4)cc3)c2)cc1"
Found: True

Lookup: Is 5% strictly greater than the compound's reported %Inh? compound: "COC(=O)c1cccc(NC(=O)NCCNc2ccnc(Nc3ccc(F)cc3)n2)c1"
Found: False

Lookup: Is 5% strictly greater than the compound's reported %Inh? compound: "CCc1nc(-c2cccc(C)c2)c(-c2ccnc(NC(=O)c3ccccc3)c2)s1"
Found: False

Lookup: Is 5% strictly greater than the compound's reported %Inh? compound: "CS(=O)(=O)CCNCc1nc(-c2ccc3ncnc(Nc4ccc(OCc5cccc(F)c5)c(Cl)c4)c3c2)cs1.Cl"
Found: True

Lookup: Is 5% strictly greater than the compound's reported %Inh? compound: "CSc1ccc(NC2=C(c3ccccc3Cl)C(=O)NC2=O)cc1"
Found: True
